# measured target: T1, C57BL/6 mouse SIRP-α D1 domain (mouse (C57BL/6 strain), UniProt P97797 32-148)
# T1 sequence: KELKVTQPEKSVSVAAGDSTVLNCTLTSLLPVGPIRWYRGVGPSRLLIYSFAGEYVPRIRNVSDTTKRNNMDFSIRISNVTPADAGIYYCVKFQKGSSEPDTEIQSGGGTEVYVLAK
# experiment notes: SPR, Langmuir fit
Returns the class for an entry based on its koff. Class ranges: lower: < 0.001 s⁻¹; middle: ≥ 0.001 s⁻¹ and < 0.002 s⁻¹; upper: ≥ 0.002 s⁻¹

Field: class (koff) — entry: S56 (scFv, V domains shown, also called clone 56) VH: DVQLVESGGGVVRPGESLRLSCAASGFTFSSYAMSWVRQAPGKGLEWLAGISAGGSDTYYIDSVKGRFTISRDNSKNSLYLQVNSLTAEDTAVYYCARETWNHLFDYWGLGTLVTVSS VL: ALTQPASVSANPGETVKITCSGGGYYSTYYGWYQQKSPGSAPVTVIHSDDKRPSDIPSRFSGSASGSAATLTITGVRVEDEAVYYCAGYDGRTYINTFGAGTTLTVL
upper

Bin? S16 (scFv, V domains shown, also called clone 16) VH: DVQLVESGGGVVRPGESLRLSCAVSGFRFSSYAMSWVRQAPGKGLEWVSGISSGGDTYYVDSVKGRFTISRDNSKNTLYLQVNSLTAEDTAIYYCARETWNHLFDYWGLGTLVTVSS VL: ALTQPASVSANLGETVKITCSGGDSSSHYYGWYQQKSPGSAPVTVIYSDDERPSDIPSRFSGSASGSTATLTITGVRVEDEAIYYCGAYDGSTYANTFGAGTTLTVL
upper

For S60 (scFv, V domains shown, also called clone 60) VH: DVQLVDSGGGVVRPGESLRLSCAASGFTFSSYAMSWVRQAPGKGLEWLAGISAGGSDTYYIDSVKGRFTISRDNSKNSLYLQMNSLTAEDTAVYYCARETWNHLFDYWGLGTLVTVSS VL: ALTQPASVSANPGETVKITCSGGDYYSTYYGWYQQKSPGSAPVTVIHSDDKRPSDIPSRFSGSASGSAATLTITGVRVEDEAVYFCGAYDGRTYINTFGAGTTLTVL , which koff bin applies?
middle

# bin label for S73 (scFv, V domains shown, also called clone 73) VH: DVQLVESGGGVVRPGESLRLSCEASGFTFSSNAMSWARQAPGKGLEWVAGISSGSDTYYGDSVKGRLTISRDNSKNILYLQMNSLTAEDTAVYYCARETWNHLFDYWGLGTLVTVSS VL: ALTQPASVSANPGETVKITCSGGIYSSYYYAWYQQKSPGSAPVTLIYSDDKRPSNIPSRFSGSASGSTATLTITGVRAEDEAVYFCGGYDQSSYTNPFGAGTTLTVL
lower

Which class holds S28 (scFv, V domains shown, also called clone 28) VH: DVQLVESGGGVVRPGESLRLSCAASGFSFSSNAMSWVRQAPGKGLEWVAGISASGDTYYSGSMKGRFTISRDNSKNTLYLQMNSLTAEDTAVYYCARETWNHLFDYWGLGTLVTVSS VL: ALTQPASVSANPGETVKITCSGGSDSYYYGWHQQKSPGSAPVTVIYSDDQRPPDIPSRFSGSASGSTTTLTITGVRAEDEAVYYCGGYDYSTYTNTFGAGTTLTVL ?
middle

Quick check: band for S59 (scFv, V domains shown, also called clone 59) VH: DVQLVESGGGVVRPGESLRLSCAVSGFRFSSHAMSWVRQAPGKGLEWVSGISSGGDTYYVDSVKGRFTISRDNSKNTLYLQVNSLTAEDTAIYYCARETWNHLFDYWGLGTLVTVSS VL: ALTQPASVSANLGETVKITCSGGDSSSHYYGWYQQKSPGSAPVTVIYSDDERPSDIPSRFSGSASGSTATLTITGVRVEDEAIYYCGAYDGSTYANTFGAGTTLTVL
upper

Which class does S24 (scFv, V domains shown, also called clone 24) VH: DVQLVESGGGVVRPGESLRLSCAASGFTFSSNAMSWVRQAPGKGLEWLAGISAGGSDTYYPASVKGRFTISRDNPKNTLYLQMNTLTAEDTAVYYCARETWNHLFDYWGLGTLVTVSS VL: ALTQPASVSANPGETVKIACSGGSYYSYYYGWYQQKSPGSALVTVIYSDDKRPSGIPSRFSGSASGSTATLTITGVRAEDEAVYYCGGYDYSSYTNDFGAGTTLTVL fall in?
middle

In plain terms, what class is S21 (scFv, V domains shown, also called clone 21; scFv-Fc form of AB21) VH: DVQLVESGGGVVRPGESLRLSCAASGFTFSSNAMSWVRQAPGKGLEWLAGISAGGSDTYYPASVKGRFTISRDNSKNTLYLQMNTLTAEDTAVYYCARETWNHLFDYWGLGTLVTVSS VL: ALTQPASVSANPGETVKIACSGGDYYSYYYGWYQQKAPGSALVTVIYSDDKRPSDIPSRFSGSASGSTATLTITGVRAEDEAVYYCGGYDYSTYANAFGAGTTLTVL ?
lower

GET /class?item= S29 (scFv, V domains shown, also called clone 29) VH: DVQLVESGGGVVRPGESLRLSCAVSGFRFSSYAMSWVRQAPGKGLEWVSGISSDSDAYYVDSVKGRFTISRDNSKNTLYLQVNSLTAEDTAVYYCARETWNHLFDYWGLGTMVTVSS VL: ALTQPASVSANLGETVKITCSGGDSSSHYYGWFQQKSPGSAPVTLIYSDDERPSDIPSRFSGSASGSTATLTITGVRVEDEAIYFCGAYDGSTYTNTFGAGTTLTVL
middle
